# assay-explanation: Volume of distribution at steady state in rat at 2 mg/kg, iv
# Assay type: ADME, organism-based
# Set-up: dose 2 mg/kg, route intravenous
# measurement-context: in vivo, read-out: Vdss
experimental-readout: Vd
Please report the result as a number followed by the unit.

QUERY: Please give the documented Vd of "CC(C)(O)c1ccccc1-c1ccc2[nH]c(/C=C/c3ccc(C(F)(F)F)cc3)nc2c1"
RESULT: 10 L/kg

* * *

# assay-explanation: Clearance in rat at 2 mg/kg, iv
# Format: ADME, organism-based
# Set-up: dose 2 mg/kg, route intravenous
# measurement-context: in vivo
experimental-readout: clearance (mL/min/kg)
Only the number, expressed in mL/min/kg, is required.

QUERY: Please give the documented clearance of "CC(C)(O)c1ccccc1-c1ccc2[nH]c(/C=C/c3ccc(C(F)(F)F)cc3)nc2c1"
RESULT: 33

QUERY: Please give the documented clearance of "CS(=O)(=O)Nc1ccccc1-c1ccc2[nH]c(/C=C/c3ccc(C(F)(F)F)cc3)nc2c1"
RESULT: 13

* * *

# assay-explanation: Oral bioavailability in mouse at 10 mg/kg
# Type: ADME, organism-based
# measurement-context: in vivo
experimental-readout: bioavailability (%)
Only the number, expressed in %, is required.

QUERY: Please give the documented bioavailability of "CC(C)(O)c1ccccc1-c1ccc2[nH]c(/C=C/c3ccc(C(F)(F)F)cc3)nc2c1"
RESULT: 83.3

* * *

# assay-explanation: Oral bioavailability in rat at 10 mg/kg
# Format: ADME, organism-based
# measurement-context: in vivo
experimental-readout: bioavailability (%)
Only the number, expressed in %, is required.

QUERY: Please give the documented bioavailability of "CC(C)(O)c1ccccc1-c1ccc2[nH]c(C#Cc3ccccc3)nc2c1"
RESULT: 13

QUERY: Please give the documented bioavailability of "CC(C)(O)c1ccccc1-c1ccc2[nH]c(/C=C/c3ccc(C(F)(F)F)cc3)nc2c1"
RESULT: 51

QUERY: Please give the documented bioavailability of "CS(=O)(=O)Nc1ccccc1-c1ccc2[nH]c(/C=C/c3ccc(C(F)(F)F)cc3)nc2c1"
RESULT: 65

QUERY: Please give the documented bioavailability of CC(O)c1ccccc1-c1ccc2[nH]c(/C=C/c3ccc(C(F)(F)F)cc3)nc2c1 (centres undefined)
RESULT: 39
